test system: SKOV3 xenografts; test: Estimated dosimetry: areas under time-activity plots for kidney and tumor; format: in vivo, BALB/c nu/nu mice; conditions: non-decay corrected data, 4 and 144 h, pretargeted
{DOTA-AEEA-S-S} = N-terminal DOTA chelator joined through an AEEA linker and two serines; {EEY-NH2} = C-terminal Glu-Glu-Tyr amide
Overview of recorded Tumor-to-kidney ratio (areas under time-activity plots) for various substances
Reply with the value as a number alone.

Solved cases below.
| Substance | Measured number |
| --- | --- |
| DOTA-AEEA-S-S-a-t-c-a-a-c-a-c-c-a-g-g-E-E-Y-NH2 (ATCAACACCAGG; chemistry not fully specified) [HP17, secondary probe, 12-mer PNA] | 2.8 |
| DOTA-AEEA-S-S-a-a-c-a-c-c-a-g-g-E-E-Y-NH2 (AACACCAGG; chemistry not fully specified) [HP16, secondary probe, 9-mer PNA] | 3.8 |
| DOTA-AEEA-S-S-g-a-c-t-a-c-a-t-c-c-a-g-a-c-t-E-E-Y-NH2 (GACTACATCCAGACT; all peptide nucleic acid (PNA), 5' {DOTA-AEEA-S-S}, 3' {EEY-NH2}) [HP2, first-generation secondary PNA probe (Westerlund et al, 2015), reference compound] | 2.0 |

Now turn to the next substance.
input: Value wanted: Tumor-to-kidney ratio (areas under time-activity plots) (SKOV3 xenografts) of entry DOTA-AEEA-S-S-a-t-c-a-t-c-a-a-c-a-c-c-a-g-g-E-E-Y-NH2 (ATCATCAACACCAGG; all peptide nucleic acid (PNA), 5' {DOTA-AEEA-S-S}, 3' {EEY-NH2}) [HP18, secondary probe, 15-mer PNA]
output: 2.0
